System: A type monoamine oxidase
TEST METHOD NOTES: Ex vivo monoamine oxidase inhibition in rat brain homogenate, serotonine substrate
Parameters: unit not given here
MEASUREMENT CONTEXT: rats, 5 mg/kg p.o., 24 hours after administration
Item-by-item account of Monoamine oxidase inhibition effect, A Type monoamine oxidase, 24 hours
// return a plain number; no unit text

COMPOUND	REPORTED MEASUREMENT
NCC1CN(c2ccc(OCC3CCCCC3)cc2)C(=O)O1 (centres unmarked) [cyclohexylmethyl, amino]	5
NCC1CN(c2ccc(OCC3CCCC3)cc2)C(=O)O1 (centres unmarked) [cyclopentylmethyl, amino]	0
NCC1CN(c2ccc(OCc3cccc(Cl)c3)cc2)C(=O)O1 (centres unmarked) [m-chlorobenzyl, amino]	6
CNCC1CN(c2ccc(OCC3CCCCC3)cc2)C(=O)O1 (centres unmarked) [cyclohexylmethyl, N--methylamino]	6

Read the next record carefully.
Which Monoamine oxidase inhibition effect, A Type monoamine oxidase, 24 hours is listed for CNCC1CN(c2ccc(OCc3ccccc3)cc2)C(=O)O1 (centres unmarked) [benzyl, N--methylamino] ? 10
